Data provenance is ChEMBL document CHEMBL3352611.

target: Sigma non-opioid intracellular receptor 1 (Cavia porcellus); test: Displacement of (+)-[3H]-pentazocine from sigma1 recetor in guinea-pig brain membranes without cerebellum by radioligand binding assay
Sequence (Q60492 whole entry): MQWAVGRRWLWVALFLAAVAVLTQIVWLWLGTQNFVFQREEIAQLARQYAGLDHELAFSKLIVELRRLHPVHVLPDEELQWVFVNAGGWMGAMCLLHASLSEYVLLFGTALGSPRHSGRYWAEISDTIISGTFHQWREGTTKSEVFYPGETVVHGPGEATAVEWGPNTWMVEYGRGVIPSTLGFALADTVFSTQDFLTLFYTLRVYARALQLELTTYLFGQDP
MEASURE: Ki (nM)
Give the value, in units of nM, as a plain number.

For reference, reported Ki for COc1cccc(CCN(C)CCCCc2cn(-c3ccc(F)cc3)c3ccccc23)c1 stands at 17.5

For reference, reported Ki for COc1ccc2c(c1OC)CCC2NCCCCc1cn(-c2ccc(F)cc2)c2ccccc12 (racemic) stands at 215

For reference, reported Ki for CCN(CCCCc1cn(-c2ccc(F)cc2)c2ccccc12)Cc1cccc(OC)c1 stands at 2.44

For reference, reported Ki for CCN(CCCCc1cn(-c2ccc(F)cc2)c2ccccc12)[C@H]1CCc2c1ccc(OC)c2OC stands at 50.8

For reference, reported Ki for COc1cccc(CNCCCCc2cn(-c3ccc(F)cc3)c3ccccc23)c1 stands at 544

For reference, reported Ki for CCN(CCCCc1cn(-c2ccc(F)cc2)c2ccccc12)Cc1ccc(OC)c(OC)c1 stands at 18.9

For reference, reported Ki for COc1ccc2c(c1OC)CC[C@@H]2NCCCCc1cn(-c2ccc(F)cc2)c2ccccc12 stands at 122

For reference, reported Ki for COc1ccc(CCN(C)CCCCc2cn(-c3ccc(F)cc3)c3ccccc23)cc1 stands at 67.4

For reference, reported Ki for COc1cccc(CCNCCCCc2cn(-c3ccc(F)cc3)c3ccccc23)c1 stands at 151

For reference, reported Ki for COc1ccc(CCNCCCCc2cn(-c3ccc(F)cc3)c3ccccc23)cc1 stands at 431
